test system: P388; experiment: Growth inhibition of murine P388 cells after 48 hrs; assay type: functional; details: Mus musculus, P388, 48 h; read-out: ED50 (the source's name)
// values below are reported EC50

Below, 2 molecules whose answers are already recorded.
CC(=O)O[C@@H]1[C@@H](OC(C)=O)[C@H](O)[C@@]2(O)c3cc4c(c(O)c3C(=O)N[C@H]2[C@@H]1OC(C)=O)OCO4: > 10 µg/mL
CC(=O)O[C@@H]1[C@@H](OC(C)=O)[C@H](OC(C)=O)[C@H]2c3cc4c(c(O)c3C(=O)N[C@H]2[C@@H]1OC(C)=O)OCO4: 0.2 µg/mL

Return reported EC50; argument: O=C1N[C@@H]2C(=C[C@H](O)[C@@H](O)[C@H]2O)c2cc3c(c(O)c21)OCO3
0.0012 µg/mL

// EC50 lookup, key: CC(=O)O[C@H]1[C@@H](OC(C)=O)[C@@H]2NC(=O)c3c(cc4c(c3O)OCO4)[C@@]23OC(=O)O[C@H]3[C@@H]1OC(C)=O
1.5 µg/mL

I would be grateful if you could share the reported EC50 for CC(=O)O[C@@H]1[C@H](OC(C)=O)[C@@H](OC(C)=O)C=C2c3cc4c(c(O)c3C(=O)N[C@H]21)OCO4 .
0.013 µg/mL

Fill in the blank: the reported EC50 of CC(=O)O[C@@H]1[C@@H](OC(C)=O)[C@H](O)[C@H]2c3cc4c(c(O)c3C(=O)N[C@H]2[C@@H]1OC(C)=O)OCO4 is ____.
> 1 µg/mL

Given the molecule CC(=O)Oc1c2c(cc3c1C(=O)N[C@H]1[C@H](OC(C)=O)[C@H](OC(C)=O)[C@@H](OC(C)=O)[C@H](OC(C)=O)[C@@]31O)OCO2 , what is its reported EC50?
8.9 µg/mL
